- System: MDA-MB-468
In plain terms, low GI50, meaning strictly below 600 nM, gives met, and everything else gives not met.

O=C(N/N=C/c1ccc(C(=O)N2CCOCC2)[nH]1)c1[nH]c2ccc(Br)cc2c1-c1ccccc1 | not met
O=C(N/N=C/c1cc(Br)c[nH]1)c1[nH]c2ccc(Br)cc2c1-c1ccccc1 | met
O=C(N/N=C/c1ccc[nH]1)c1[nH]c2ccc(Br)cc2c1-c1ccccc1 | met

# check: GI50 < 600 nM for CCc1c[nH]c(/C=N/NC(=O)c2[nH]c3ccc(Br)cc3c2-c2ccccc2)c1
met

# check: GI50 < 600 nM for O=C(N/N=C/c1cc([N+](=O)[O-])c[nH]1)c1[nH]c2ccc(Br)cc2c1-c1ccccc1
met

----------
# maps each entry to its CC50
- System: SR
- PROTOCOL: NCI60 five-dose screen
- Type: cell-based
- MEASUREMENT_PARAMETERS: Homo sapiens, leukemia, read-out: LC50 (the source's name)

Here are 3 compounds together with their reported answers.
O=C(N/N=C/c1cc(Cl)c[nH]1)c1[nH]c2ccc(Br)cc2c1-c1ccccc1 | 4.6 µM
O=C(N/N=C/c1ccc([N+](=O)[O-])[nH]1)c1[nH]c2ccc(Br)cc2c1-c1ccccc1 | > 100 µM
O=C(N/N=C/c1ccc[nH]1)c1[nH]c2ccc(Br)cc2c1-c1ccccc1 | > 100 µM

Here is the next item to consider.
Reported CC50, compound O=C(N/N=C/c1cc([N+](=O)[O-])c[nH]1)c1[nH]c2ccc(Br)cc2c1-c1ccccc1 : ____
> 100 µM

----------
Assay system UACC-62; read-out recorded as GI50.
Reply with a number, then the unit it belongs to.

Here are 9 compounds together with their reported answers.
CCOC(=O)c1ccc(/C=N/NC(=O)c2[nH]c3ccc(Br)cc3c2-c2ccccc2)[nH]1 [Derivative 3i] | 614 nM
O=C(N/N=C/c1cc([N+](=O)[O-])c[nH]1)c1[nH]c2ccc(Br)cc2c1-c1ccccc1 [Derivative 3q] | 538 nM
CCOC(=O)c1cc(/C=N/NC(=O)c2[nH]c3ccc(Br)cc3c2-c2ccccc2)c[nH]1 [Derivative 3v] | 3180 nM
O=C(N/N=C/c1ccc(C(=O)N2CCOCC2)[nH]1)c1[nH]c2ccc(Br)cc2c1-c1ccccc1 [Derivative 3n] | 864 nM
CCc1c[nH]c(/C=N/NC(=O)c2[nH]c3ccc(Br)cc3c2-c2ccccc2)c1 [Derivative 3t] | 442 nM
Cc1[nH]c(/C=N/NC(=O)c2[nH]c3ccc(Br)cc3c2-c2ccccc2)c(C)c1[N+](=O)[O-] [Derivative 3r] | 2900 nM
O=C(N/N=C/c1cc(Cl)c[nH]1)c1[nH]c2ccc(Br)cc2c1-c1ccccc1 [Derivative 3h] | 559 nM
O=C(N/N=C/c1[nH]ccc1Cl)c1[nH]c2ccc(Br)cc2c1-c1ccccc1 [Derivative 3g] | 411 nM
O=C(N/N=C/c1ccc[nH]1)c1[nH]c2ccc(Br)cc2c1-c1ccccc1 [Derivative 3a] | 99 nM

Here is the next item to consider.
Quick check: GI50 on UACC-62, item CCc1ccc(/C=N/NC(=O)c2[nH]c3ccc(Br)cc3c2-c2ccccc2)[nH]1 [Derivative 3s] ?
381 nM

----------
- System: DU-145
In plain terms, low GI50, meaning strictly below 0.4 µM, gives Criterion met, and everything else gives Criterion not met.

Illustrative cases are given below, each with its answer.
O=C(N/N=C/c1ccc[nH]1)c1[nH]c2ccc(Br)cc2c1-c1ccccc1 [Derivative 3a] | Criterion not met
CCOC(=O)c1cc(/C=N/NC(=O)c2[nH]c3ccc(Br)cc3c2-c2ccccc2)c[nH]1 [Derivative 3v] | Criterion not met
CCOC(=O)c1c[nH]c(/C=N/NC(=O)c2[nH]c3ccc(Br)cc3c2-c2ccccc2)c1 [Derivative 3j] | Criterion not met
O=C(N/N=C/c1ccc([N+](=O)[O-])[nH]1)c1[nH]c2ccc(Br)cc2c1-c1ccccc1 [Derivative 3p] | Criterion not met
CCc1cc[nH]c1/C=N/NC(=O)c1[nH]c2ccc(Br)cc2c1-c1ccccc1 [Derivative 3u] | Criterion not met
O=C(N/N=C/c1cc(Br)c[nH]1)c1[nH]c2ccc(Br)cc2c1-c1ccccc1 [Derivative 3e] | Criterion met

Alright, here's another compound for you.
# check: GI50 < 0.4 µM for CCc1c[nH]c(/C=N/NC(=O)c2[nH]c3ccc(Br)cc3c2-c2ccccc2)c1 [Derivative 3t]
Criterion met

----------
# maps each entry to its CC50
- Test system: NCI/ADR-RES
- PROTOCOL: NCI60 five-dose screen
- Format: cell-based, human
- MEASUREMENT_PARAMETERS: Homo sapiens, ovarian cancer, read-out: LC50 (the source's name)
The reply should be a number in µM, with the unit left off.

Here are 5 compounds together with their reported answers.
O=C(N/N=C/c1ccc([N+](=O)[O-])[nH]1)c1[nH]c2ccc(Br)cc2c1-c1ccccc1 [Derivative 3p] | 16.2
CCOC(=O)c1cc(/C=N/NC(=O)c2[nH]c3ccc(Br)cc3c2-c2ccccc2)c[nH]1 [Derivative 3v] | 21.2
CCc1c[nH]c(/C=N/NC(=O)c2[nH]c3ccc(Br)cc3c2-c2ccccc2)c1 [Derivative 3t] | 22
O=C(N/N=C/c1[nH]ccc1Cl)c1[nH]c2ccc(Br)cc2c1-c1ccccc1 [Derivative 3g] | 10.5
CCc1ccc(/C=N/NC(=O)c2[nH]c3ccc(Br)cc3c2-c2ccccc2)[nH]1 [Derivative 3s] | 30.2

Quick check: CC50 on NCI/ADR-RES, item CCOC(=O)c1ccc(/C=N/NC(=O)c2[nH]c3ccc(Br)cc3c2-c2ccccc2)[nH]1 [Derivative 3i] ?
9.2

Quick check: CC50 on NCI/ADR-RES, item O=C(N/N=C/c1cc(Br)c(Br)[nH]1)c1[nH]c2ccc(Br)cc2c1-c1ccccc1 [Derivative 3f] ?
9.73

Quick check: CC50 on NCI/ADR-RES, item O=C(N/N=C/c1ccc[nH]1)c1[nH]c2ccc(Br)cc2c1-c1ccccc1 [Derivative 3a] ?
59.2

----------
- Tested on: SW-620
# maps each entry to its GI50
The reply should be a number in nM, with the unit left off.

O=C(N/N=C/c1[nH]ccc1Cl)c1[nH]c2ccc(Br)cc2c1-c1ccccc1 | 499
O=C(N/N=C/c1cc([N+](=O)[O-])c[nH]1)c1[nH]c2ccc(Br)cc2c1-c1ccccc1 | 380
CCc1ccc(/C=N/NC(=O)c2[nH]c3ccc(Br)cc3c2-c2ccccc2)[nH]1 | 558

Here is the next item to consider.
Quick check: GI50 on SW-620, item O=C(N/N=C/c1ccc[nH]1)c1[nH]c2ccc(Br)cc2c1-c1ccccc1 ?
352

----------
# maps each entry to its CC50
- Tested on: HCT-15
- PROTOCOL: NCI60 five-dose screen
- Assay type: cell-based
- MEASUREMENT_PARAMETERS: Homo sapiens; HCT-15, colon cancer; read-out: LC50 (the source's name)
The reply should be a number in µM, with the unit left off.

O=C(N/N=C/c1cc(Cl)c[nH]1)c1[nH]c2ccc(Br)cc2c1-c1ccccc1 [Derivative 3h] | 21.9
CCOC(=O)c1ccc(/C=N/NC(=O)c2[nH]c3ccc(Br)cc3c2-c2ccccc2)[nH]1 [Derivative 3i] | 40.5

Quick check: CC50 on HCT-15, item CCOC(=O)c1c[nH]c(/C=N/NC(=O)c2[nH]c3ccc(Br)cc3c2-c2ccccc2)c1 [Derivative 3j] ?
51.9

----------
- Test system: BT-549
- PROTOCOL: NCI60 five-dose screen
- Format: cell-based
- MEASUREMENT_PARAMETERS: Homo sapiens; BT-549, breast cancer; read-out: LC50 (the source's name)
In plain terms, low CC50, meaning strictly below 30 µM, gives satisfied, and everything else gives not satisfied.

CCc1cc[nH]c1/C=N/NC(=O)c1[nH]c2ccc(Br)cc2c1-c1ccccc1 | not satisfied
Cn1cccc1/C=N/NC(=O)c1[nH]c2ccc(Br)cc2c1-c1ccccc1 | not satisfied
Cc1cc(C)c(/C=N/NC(=O)c2[nH]c3ccc(Br)cc3c2-c2ccccc2)[nH]1 | not satisfied
O=C(N/N=C/c1cc[nH]c1)c1[nH]c2ccc(Br)cc2c1-c1ccccc1 | not satisfied
O=C(N/N=C/c1ccc[nH]1)c1[nH]c2ccc(Br)cc2c1-c1ccccc1 | satisfied
CCc1c[nH]c(/C=N/NC(=O)c2[nH]c3ccc(Br)cc3c2-c2ccccc2)c1 | satisfied

# check: CC50 < 30 µM for O=C(N/N=C/c1ccc([N+](=O)[O-])[nH]1)c1[nH]c2ccc(Br)cc2c1-c1ccccc1
satisfied

# check: CC50 < 30 µM for O=C(N/N=C/c1ccc(C(=O)N2CCOCC2)[nH]1)c1[nH]c2ccc(Br)cc2c1-c1ccccc1
not satisfied

# check: CC50 < 30 µM for O=C(N/N=C/c1cc([N+](=O)[O-])c[nH]1)c1[nH]c2ccc(Br)cc2c1-c1ccccc1
not satisfied

# check: CC50 < 30 µM for O=C(N/N=C/c1cc(Cl)c[nH]1)c1[nH]c2ccc(Br)cc2c1-c1ccccc1
satisfied
